Consider the following molecules; for each one, report its pIC50.
target: aryl hydrocarbon receptor (AhR) (Homo sapiens, UniProt P35869); construct: Human hepatocellular carcinoma (HepG2) cell lines were acquired from Abcam; assay: AhR antagonism: CYP1A1 mRNA levels in HepG2 cells by RT-qPCR; details: HepG2, 4 h incubation, 2^-ΔΔCt, normalized to DMSO control
Sequence (P35869 11-848): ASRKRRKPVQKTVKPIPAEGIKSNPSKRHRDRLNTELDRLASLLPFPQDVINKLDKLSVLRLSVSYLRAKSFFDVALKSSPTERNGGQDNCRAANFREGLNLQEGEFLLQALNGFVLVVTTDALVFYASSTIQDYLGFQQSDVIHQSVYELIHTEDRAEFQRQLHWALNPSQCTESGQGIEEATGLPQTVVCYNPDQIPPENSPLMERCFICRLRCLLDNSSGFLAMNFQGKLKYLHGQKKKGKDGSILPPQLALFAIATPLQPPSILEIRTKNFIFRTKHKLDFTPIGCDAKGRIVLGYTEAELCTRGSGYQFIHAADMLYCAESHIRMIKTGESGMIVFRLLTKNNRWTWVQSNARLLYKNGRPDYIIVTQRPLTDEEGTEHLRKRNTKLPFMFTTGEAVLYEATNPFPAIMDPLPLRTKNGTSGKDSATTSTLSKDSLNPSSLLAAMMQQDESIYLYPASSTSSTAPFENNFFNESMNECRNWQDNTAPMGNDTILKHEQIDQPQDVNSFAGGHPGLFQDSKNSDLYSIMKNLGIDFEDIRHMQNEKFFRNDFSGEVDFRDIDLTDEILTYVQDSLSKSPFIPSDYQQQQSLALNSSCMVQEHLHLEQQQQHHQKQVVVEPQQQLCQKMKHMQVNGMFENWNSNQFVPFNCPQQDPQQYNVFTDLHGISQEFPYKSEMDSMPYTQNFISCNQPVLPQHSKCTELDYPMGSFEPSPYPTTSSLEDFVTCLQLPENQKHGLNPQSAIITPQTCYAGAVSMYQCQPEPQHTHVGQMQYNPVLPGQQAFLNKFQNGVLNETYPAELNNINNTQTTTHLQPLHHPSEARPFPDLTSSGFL
Answers are plain numbers, as −log10 of the molar value.

Here are 2 molecules together with their reported answers.
Molecule	Observed
CCS(=O)(=O)c1ccc2oc(-c3ccc4c(c3)C3CC(C4)C3)nc2c1 [50c]	4.88
CCS(=O)(=O)c1ccc2oc(C34Cc5ccccc5C(C3)C4)nc2c1 [50a]	4.72

# return pIC50 for each item in the list
1. CCS(=O)(=O)c1ccc2oc(-c3ccc4c(c3)CC3CC4C3)nc2c1 [50b]
2. CCS(=O)(=O)c1ccc2oc(-c3ccc4ccccc4c3)nc2c1 [Ezutromid, ezutromid, reference compound]

OUT:
1. 5.67
2. 6.57

---

experiment: Metabolic stability in mouse liver microsomes (MLM) with or without ANF; format: in vitro ADME; settings: CD-1, mouse, liver microsomes, with α-naphthoflavone (ANF, CYP1A inhibitor) 3 μM, 1 μM compound, with 3 μM ANF (CYP1A inhibitor)
Consider the following molecules; for each one, report its half-life at 1 μM.
Answers are plain numbers, in h.

Molecule	half-life at 1 μM / h
CCS(=O)(=O)c1ccc2oc(-c3ccc4ccccc4c3)nc2c1 [Ezutromid, ezutromid, reference compound]	1.48
CCS(=O)(=O)c1ccc2oc(-c3ccc4c(c3)C3CC(C4)C3)nc2c1 [50c]	0.933
CCS(=O)(=O)c1ccc2oc(-c3ccc4c(c3)CC3CC4C3)nc2c1 [50b]	0.7

IN: What measured half-life at 1 μM goes with CCS(=O)(=O)c1ccc2oc(C34Cc5ccccc5C(C3)C4)nc2c1 [50a] ?
OUT: 1.8

---

assay: Metabolic stability in mouse liver microsomes (MLM) with or without ANF; type: in vitro ADME; conditions: CD-1, mouse, liver microsomes, with α-naphthoflavone (ANF, CYP1A inhibitor) 3 μM, 1 μM compound, with 3 μM ANF, read-out: CLint(mic)
Consider the following molecules; for each one, report its microsomal CLint at 1 μM.
Give bare numbers, in µL/min/mg.

Here are 3 molecules together with their reported answers.
Molecule	microsomal CLint at 1 μM [µL/min/mg]
CCS(=O)(=O)c1ccc2oc(-c3ccc4c(c3)C3CC(C4)C3)nc2c1 [50c]	25.7
CCS(=O)(=O)c1ccc2oc(-c3ccc4c(c3)CC3CC4C3)nc2c1 [50b]	33.6
CCS(=O)(=O)c1ccc2oc(-c3ccc4ccccc4c3)nc2c1 [Ezutromid, ezutromid, reference compound]	15.8

IN: What measured microsomal CLint at 1 μM goes with CCS(=O)(=O)c1ccc2oc(C34Cc5ccccc5C(C3)C4)nc2c1 [50a] ?
OUT: 12.8

---

assay: Metabolic stability in mouse liver microsomes (MLM) with or without ANF; assay type: in vitro ADME; details: CD-1, mouse, liver microsomes, 1 μM compound, without ANF, read-out: CLint(mic)
Consider the following compounds; for each one, report its microsomal CLint at 1 μM.
Numbers only, in µL/min/mg.

Here are 3 compounds together with their reported answers.
Compound	Test readout	Units	Observed
CCS(=O)(=O)c1ccc2oc(-c3ccc4c(c3)C3CC(C4)C3)nc2c1 [50c]	microsomal CLint at 1 μM	µL/min/mg	29.9
CCS(=O)(=O)c1ccc2oc(-c3ccc4ccccc4c3)nc2c1 [Ezutromid, ezutromid, reference compound]	microsomal CLint at 1 μM	µL/min/mg	23.3
CCS(=O)(=O)c1ccc2oc(C34Cc5ccccc5C(C3)C4)nc2c1 [50a]	microsomal CLint at 1 μM	µL/min/mg	14.7

Field: next compound
IN: What measured microsomal CLint at 1 μM goes with CCS(=O)(=O)c1ccc2oc(-c3ccc4c(c3)CC3CC4C3)nc2c1 [50b] ?
OUT: 35.6

This collection of values is drawn from paper PMC13236579.
